Molecular target: HeB2013 RBD (SARSr-CoV BtRf-BetaCoV/HeB2013)
Assay: BLI
assayMetric: binding result

1. BD56-597 (antibody, V domains shown) VH: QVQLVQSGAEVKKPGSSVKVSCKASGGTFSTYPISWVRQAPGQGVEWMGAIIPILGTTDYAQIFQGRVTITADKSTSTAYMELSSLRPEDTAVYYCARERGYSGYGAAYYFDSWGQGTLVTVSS VL: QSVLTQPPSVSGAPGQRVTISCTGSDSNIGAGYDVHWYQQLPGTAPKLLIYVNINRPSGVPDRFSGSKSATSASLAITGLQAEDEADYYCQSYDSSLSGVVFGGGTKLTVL ... binds
